Origin of measurements: the supplement of paper PMC10065799

# Test system: c-Src;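 note: 11-residue human phosphosite peptides and single-mutation variants displayed on the E. coli surface, counted by deep sequencing, each peptide's frequency after selection divided by its frequency in the unselected input library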;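 note: frequency after pTyr selection over input frequency; kinase dosed for 20-30% of maximal phosphorylation in three min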
# test.description: phosphorylation enrichment, bacterial display (enrichment ratio); higher = better substrate or ligand; peptides without Tyr show the background
Would you kindly list phosphorylation enrichment for each of these sequences?
Numbers only.

These solved cases illustrate the format of a correct answer.
• LRWREYQRQDY [PRKRIP1_Y90_R87W] = 0.486
• QDTSRYTVCNL [BIRC3_Y245_S248C] = 0.439
• NSNSDYVDVLP [SH2D1B_Y127] = 0.598
• FTRNFYVRAVL [CYBA_Y88_YF] = 0.554
• RELSWYRGRRP [HESX1_Y106] = 0.727

Hi team, please reply with phosphorylation enrichment for each item in this list.
1. PDGVEYLKNNP [GRIN3A_Y831_D835N]
2. ENEGTYVCIAT [ADAMTSL3_Y1365]
3. LSDGPYSNSYE [EPOR_Y485_P488S]
4. SPGGDYAAMGA [ERBB3_Y1276_G1271S]
5. PKSLFYLLLKL [TRPC6_Y775]
6. RSRSPYSPVLR [CDK13_Y399]
7. KRGVSYILKLA [SERPINB1_Y84_A82V]
8. EPSVPYRGTVF [GLI3_Y104]

[A]
1. 0.539
2. 1.62
3. 0.968
4. 0.445
5. 1.74
6. 0.701
7. 0.412
8. 0.46
